# Test system: AS120
# Method Description: qHTS profiling for inhibitors of Plasmodium falciparum proliferation (AID 504749); note: nearly all actives have a fitted effect of over 60% in size
# Test Context: P. falciparum in erythrocytes, SYBR Green DNA, 72 h; series mostly up to 28.7 µM
Inconclusive results are not listed. The source made the active and inactive calls. Calls come from the whole dose curve; as a rule, active = well fitted inhibition curve with a large enough effect; inconclusive = small, poorly fitted or top-dose-only effect; inactive = flat fitted curve, though single readings scatter.
Outcomes you can answer with include only these: active, inactive

Examples from the recorded data:
CCCCC(=O)OCC(=O)[C@]1(O)Cc2c(O)c3c(c(O)c2[C@H](OC2CC(NC(=O)C(F)(F)F)C(O)C(C)O2)C1)C(=O)c1c(OC)cccc1C3=O (stereo not given in full); active
Clc1ccc(CS[C@@H](Cn2ccnc2)c2ccc(Cl)cc2Cl)cc1; active
CC(=O)NC[C@@H]1CN(c2ccc(N3CCOCC3)c(F)c2)C(=O)O1; inactive

Any idea what this test logged for CC1=C(/C=C/C(C)=C\C=C\C(C)=C\C=C\C=C(C)\C=C\C=C(C)\C=C\C2=C(C)C[C@@H](O)CC2(C)C)C(C)(C)C[C@H](O)C1 ? active

Any idea what this test logged for O=C(O)[C@H]1C[C@@H](CP(=O)(O)O)CCN1 ? inactive
